Origin of the recorded values: ChEMBL document CHEMBL1201862

Catalogue of GI50 readings, one per entry.
- System: SNB-75
- Test Details: NCI tumour cell line growth inhibition, 48 h
Active and inactive are the calls of the source. Rule as the data show it: active = GI50 up to about 1.1 µM and inactive = higher.

Recorded GI50, per entry:
- Compound: "CC1=C(C)C(=O)OC(C(C)(O)C2(O)CC3OC34C3CC(O)C56OC5C=CC(=O)C6(C)C3CCC42C)C1 (stereo not given)"
  Experimental Target: "SNB-75"
  Readout: "GI50"
  Result: "3.78 µM (inactive)"
- Compound: "CCOC(=O)Cc1nc2ccc3c(c2nc1O)C(=O)c1ccccc1C3=O"
  Experimental Target: "SNB-75"
  Readout: "GI50"
  Result: "62.7 µM (inactive)"
- Compound: "CC(=O)Oc1ccc(C2SCc3nc4ccccc4n32)cc1 (stereo not given)"
  Experimental Target: "SNB-75"
  Readout: "GI50"
  Result: "19.9 µM (inactive)"

Prompt: Check SNB-75 data and give GI50 for `O=C1Nc2ccccc2/C1=C\c1c(Cl)nc2n1CCS2` .
Completion: 22.3 µM (inactive)

Prompt: Check SNB-75 data and give GI50 for `CCc1nc2ccccc2c(=O)n1/N=C(\N=N\c1ccc(Cl)cc1)c1ccccc1` .
Completion: 14.6 µM (inactive)

###

Catalogue of GI50 readings, one per entry.
- System: OVCAR-8
- Test Details: NCI tumour cell line growth inhibition, 48 h
The source made the active and inactive calls. No stated cut-off is given here; in the data, active = GI50 up to about 1.1 µM and inactive = higher.

Recorded GI50, per entry:
- Compound: "CC(=O)Oc1cc(C(F)(F)F)ccc1C(=O)OC1(C)OC(=O)c2ccc(C(F)(F)F)cc2O1 (stereo not given)"
  Experimental Target: "OVCAR-8"
  GI50: "> 100 µM (inactive)"
- Compound: "N#Cc1ccc(/C=C2\\Cc3ccccc3C2=O)cc1"
  Experimental Target: "OVCAR-8"
  GI50: "> 100 µM (inactive)"
- Compound: "N[C@H](C(=O)O)[C@@H]1CC(Br)=NO1"
  Experimental Target: "OVCAR-8"
  GI50: "85.5 µM (inactive)"
- Compound: "O=C(O)CS(=O)(=O)C(c1ccccc1)c1ccccc1"
  Experimental Target: "OVCAR-8"
  GI50: "> 100 µM (inactive)"

Attention now turns to another entry.
Prompt: Given the compound `Cc1ccccc1C1=C/C(=C(\SS/C(C(=O)c2ccc(OCC(=O)O)c(Cl)c2Cl)=C2\C=C(c3ccccc3C)SS2)C(=O)c2ccc(OCC(=O)O)c(Cl)c2Cl)SS1` , write its reported GI50.
Completion: 26.3 µM (inactive)

###

Catalogue of GI50 readings, one per entry.
- Test system: M14
- Test Details: NCI tumour cell line growth inhibition, 48 h
Activity calls are given as the source filed them. Cut-off read from the data, not from the text of the source: active = GI50 up to about 1.1 µM and inactive = higher.

Recorded GI50, per entry:
- Compound: "COc1cc([C@H]2Oc3c(OC)cc(CCCO)cc3[C@@H]2CO)ccc1O [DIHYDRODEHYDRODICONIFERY ALCOHOL]"
  Experimental Target: "M14"
  Result: "> 100 µM (inactive)"
- Compound: "Cn1c(=O)c2nc(/N=N/Nc3nncs3)[nH]c2n(C)c1=O"
  Experimental Target: "M14"
  Result: "> 100 µM (inactive)"
- Compound: "Cc1cc(N(CCC#N)CCC#N)ccc1C(=N/NC(=O)c1cc(Cl)ccc1O)/N=N/c1cccc(Cl)c1"
  Experimental Target: "M14"
  Result: "15.5 µM (inactive)"
- Compound: "COc1ccc(C[C@H]2COC(=O)[C@@H]2Cc2ccc(Br)cc2)cc1OC"
  Experimental Target: "M14"
  Result: "33.3 µM (inactive)"
- Compound: "CC1(C)OC([C@H](O)CO)C([C@H]2NCCS2)O1 (some centres undefined)"
  Experimental Target: "M14"
  Result: "> 100 µM (inactive)"
- Compound: "COC(=O)C12CC3CC(C1)CC(C(=O)OC)(C3)C2"
  Experimental Target: "M14"
  Result: "> 100 µM (inactive)"

Prompt: Check M14 data and give GI50 for CC1=C(C)C(=O)OC(C(C)(O)C2(O)CC3OC34C3CC(O)C56OC5C=CC(=O)C6(C)C3CCC42C)C1 (centres undefined) .
Completion: 1.27 µM (inactive)

Prompt: Check M14 data and give GI50 for COc1cc2c(c(OC)c1OC)C(=O)CC2N (centres undefined) .
Completion: > 100 µM (inactive)

Prompt: Check M14 data and give GI50 for `COCn1cc(C2=C(C)C(=O)C(C)=C(C)C2=O)cn1` .
Completion: > 100 µM (inactive)

Prompt: Check M14 data and give GI50 for `Cc1cc2c(cc1-c1cc3c(cc1C)C(C(C)C)=C(O)C(=O)/C3=C\Nc1cccc3c(N)cccc13)/C(=C/Nc1cccc3c(N)cccc13)C(=O)C(O)=C2C(C)C` .
Completion: 48.5 µM (inactive)

Prompt: Check M14 data and give GI50 for `COc1ccc(OC)c2c1C(=O)C(Cl)=C(N1CCN(CCOCCO)CC1)C2=O` .
Completion: 17.2 µM (inactive)

Prompt: Check M14 data and give GI50 for CCOC(=O)CCC(NC(=O)c1ccc(Nc2nc3ccc(C(F)(F)F)cc3nc2-c2ccccc2)cc1)C(=O)OCC (centres undefined) .
Completion: 19.7 µM (inactive)

Prompt: Check M14 data and give GI50 for OCC1OC(OCC(O)C(O)C(O)C(/C=N/Nc2ccccc2)=N/Nc2ccccc2)C(O)C(O)C1O (centres undefined) .
Completion: > 100 µM (inactive)

Prompt: Check M14 data and give GI50 for CC(=O)/C=C\C1CC2C=CC1C2 (centres undefined) .
Completion: 33.7 µM (inactive)

###

- Tested on: NCI-H226
- Test Details: NCI tumour cell line growth inhibition, 48 h
Calls of active or inactive are those of the source. Rule as the data show it: active = GI50 up to about 1.1 µM and inactive = higher.
Readout: GI50

Recorded GI50, per entry:
- Compound: "Cn1cnc(S[C@H]2[C@H]3C(=O)C=C4S[C@H]5C[C@]42C2=C(N5)C(=O)c4[nH]cc5c4C2=[N+]3CC5)c1C[C@H](N)C(=O)O"
  GI50: "19.4 µM (inactive)"
- Compound: "CC(C)C(Nc1c2ccccc2nc2ccccc12)C(=O)O (stereo not drawn)"
  GI50: "> 100 µM (inactive)"

Prompt: Check NCI-H226 data and give GI50 for `COc1ccc2[nH]c3nnc(N)c-3nc2c1` .
Completion: 3.85 µM (inactive)

###

- Tested on: SK-MEL-5
- Test Details: NCI tumour cell line growth inhibition, 48 h
The source made the active and inactive calls. Rule as the data show it: active = GI50 up to about 1.1 µM and inactive = higher.
Select the matching outcome among active, inactive

Here's what some known entries look like.
- Compound: "O=C1CC(Cl)c2c(Cl)sc(Cl)c21 (stereo not given)"
  Class Name: "inactive"
- Compound: "CN(C)CC1CCCCCCCCCCCCC(CN(C)C)C1=O (stereo not given)"
  Class Name: "inactive"
- Compound: "O=C(NCCSSCCNC(=O)/C(Cc1ccc(O)c(Br)c1)=N/O)/C(Cc1ccc(O)c(Br)c1)=N/O"
  Class Name: "active"

Prompt: Per the records of this test, what outcome belongs to COc1ccc(-c2c3c(n(C4OC(COC(C)=O)C(OC(C)=O)C(OC(C)=O)C4OC(C)=O)c(=S)c2C#N)CCC3)cc1 (stereo not given) ?
Completion: inactive

Prompt: Per the records of this test, what outcome belongs to COC1C(C)OC(OC2CC(C)(O)Cc3cc4c(c(O)c32)C(=O)c2c(O)cc3c(c2C4=O)OC2OC3(C)C(O)C(N(C)C)C2O)C(OC)C1(C)OC (stereo not given) ?
Completion: active

###

- Tested on: KM-20L2
- Test Details: NCI tumour cell line growth inhibition, 48 h
The source made the active and inactive calls. No stated cut-off is given here; in the data, active = GI50 up to about 1.1 µM and inactive = higher.
Readout: GI50

Recorded GI50, per entry:
- Molecule: "COc1ccc(-c2cc(=O)c3c(O)c(OC)c(O)c(OC)c3o2)cc1OC"
  GI50: "> 100 µM (inactive)"
- Molecule: "COC(=O)/C=C1/CCC2[C@@H](C(=O)CC3[C@]2(C)CCC[C@@]3(C)C(=O)OC)C1C (stereo partly drawn)"
  GI50: "13.1 µM (inactive)"

Attention now turns to another entry.
Prompt: Given the molecule `Cn1cnc(S[C@H]2[C@H]3C(=O)C=C4S[C@H]5C[C@]42C2=C(N5)C(=O)c4[nH]cc5c4C2=[N+]3CC5)c1C[C@H](N)C(=O)O` , write its reported GI50.
Completion: 4.47 µM (inactive)

###

- System: SK-MEL-2
- Test Details: NCI tumour cell line growth inhibition, 48 h
The source made the active and inactive calls. No stated cut-off is given here; in the data, active = GI50 up to about 1.1 µM and inactive = higher.
Catalogue of GI50 readings, one per entry.

Recorded GI50, per entry:
- Compound: "COc1cc2ccc3c4cc(OC)c(OC(C)C)cc4c[n+](C)c3c2cc1OC"
  Experimental Target: "SK-MEL-2"
  GI50: "30.8 µM (inactive)"
- Compound: "Cn1c(=O)c2nc(/N=N/Nc3nncs3)[nH]c2n(C)c1=O"
  Experimental Target: "SK-MEL-2"
  GI50: "> 100 µM (inactive)"
- Compound: "O=c1[nH]c(C2CCCCC2)nc2cc(Cl)ccc12"
  Experimental Target: "SK-MEL-2"
  GI50: "> 100 µM (inactive)"
- Compound: "Cn1c(=O)c2ccccc2[n+]2c(-c3cccc([N+](=O)[O-])c3)csc12"
  Experimental Target: "SK-MEL-2"
  GI50: "36.4 µM (inactive)"
- Compound: "N[C@H](C(=O)O)[C@@H]1CC(Br)=NO1"
  Experimental Target: "SK-MEL-2"
  GI50: "> 100 µM (inactive)"

Prompt: Given the compound `O=C1OC(c2ccccc2)=N/C1=C\c1cc(Cl)ccc1Cl` , write its reported GI50.
Completion: > 100 µM (inactive)

Prompt: Given the compound `Cn1c2ncccc2n2c(=O)cc(O)cc12` , write its reported GI50.
Completion: 39.6 µM (inactive)

Prompt: Given the compound `COCn1cc(C2=C(C)C(=O)C(C)=C(C)C2=O)cn1` , write its reported GI50.
Completion: > 100 µM (inactive)

Prompt: Given the compound `Oc1cc(O)c2c(c1)O[C@H](c1cc(O)c(O)c(O)c1)[C@@H](O)C2` , write its reported GI50.
Completion: 24.6 µM (inactive)

Prompt: Given the compound `O=c1cc(-c2ccccc2)oc2cc(O)cc(O)c12` , write its reported GI50.
Completion: 17.9 µM (inactive)

Prompt: Given the compound c1ccc(CC2COC(c3cccs3)=N2)cc1 (stereo not drawn) , write its reported GI50.
Completion: 43.8 µM (inactive)

Prompt: Given the compound `Cc1ccc(O)c(/N=N\c2c(O)cc(S(=O)(=O)O)c3ccccc23)c1` , write its reported GI50.
Completion: 29.7 µM (inactive)
